Values from patent US20250368745A1

Biological target: T1, human IL-18BP (human, UniProt O95998 31-194)
T1 construct: UniProt printed as 095998; also called hIL-18BP
T1 sequence: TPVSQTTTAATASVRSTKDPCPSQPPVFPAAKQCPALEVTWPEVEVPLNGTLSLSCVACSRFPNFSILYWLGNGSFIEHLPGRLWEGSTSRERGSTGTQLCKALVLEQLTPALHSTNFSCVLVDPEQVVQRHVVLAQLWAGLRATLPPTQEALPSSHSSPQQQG
Experiment: BLI, apparent KD
MEASURED QUANTITY: Kd (nM)

{"BINDER": "SA301a HC-S98A (antibody, name in Kabat numbering, V domains shown, IgG1 kappa) VH: QVQLQESGPGLVKPSQTLSLTCTVSGYSITSDYNSHWIRQPPGKGLEWIGYIHYSGSTNYNPSLKSRVTISRDTSKNQFSLKLSSVTAADTAVYYCARNYGAIYVNYFDYWGQGTLVTVSS VL: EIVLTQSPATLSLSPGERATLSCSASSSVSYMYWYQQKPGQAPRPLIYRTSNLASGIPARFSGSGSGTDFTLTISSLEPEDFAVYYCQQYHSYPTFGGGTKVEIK", "MEASURED QUANTITY": "Kd", "REPORTED": 2.29}
{"BINDER": "SA301a HC-G97F (antibody, name in Kabat numbering, V domains shown, IgG1 kappa) VH: QVQLQESGPGLVKPSQTLSLTCTVSGYSITSDYNSHWIRQPPGKGLEWIGYIHYSGSTNYNPSLKSRVTISRDTSKNQFSLKLSSVTAADTAVYYCARNYFSIYVNYFDYWGQGTLVTVSS VL: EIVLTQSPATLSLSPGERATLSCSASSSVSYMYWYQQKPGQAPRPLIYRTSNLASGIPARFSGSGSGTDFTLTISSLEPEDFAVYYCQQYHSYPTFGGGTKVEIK", "MEASURED QUANTITY": "Kd", "REPORTED": 6.32}
{"BINDER": "SA301a HC-Y96A (antibody, name in Kabat numbering, V domains shown, IgG1 kappa) VH: QVQLQESGPGLVKPSQTLSLTCTVSGYSITSDYNSHWIRQPPGKGLEWIGYIHYSGSTNYNPSLKSRVTISRDTSKNQFSLKLSSVTAADTAVYYCARNAGSIYVNYFDYWGQGTLVTVSS VL: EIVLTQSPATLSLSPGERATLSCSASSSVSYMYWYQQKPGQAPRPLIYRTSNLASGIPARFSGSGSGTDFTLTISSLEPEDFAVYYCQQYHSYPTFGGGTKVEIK", "MEASURED QUANTITY": "Kd", "REPORTED": 0.47}
